Target: D3R (Homo sapiens (Human), UniProt P35462)
Sequence (P35462 whole entry): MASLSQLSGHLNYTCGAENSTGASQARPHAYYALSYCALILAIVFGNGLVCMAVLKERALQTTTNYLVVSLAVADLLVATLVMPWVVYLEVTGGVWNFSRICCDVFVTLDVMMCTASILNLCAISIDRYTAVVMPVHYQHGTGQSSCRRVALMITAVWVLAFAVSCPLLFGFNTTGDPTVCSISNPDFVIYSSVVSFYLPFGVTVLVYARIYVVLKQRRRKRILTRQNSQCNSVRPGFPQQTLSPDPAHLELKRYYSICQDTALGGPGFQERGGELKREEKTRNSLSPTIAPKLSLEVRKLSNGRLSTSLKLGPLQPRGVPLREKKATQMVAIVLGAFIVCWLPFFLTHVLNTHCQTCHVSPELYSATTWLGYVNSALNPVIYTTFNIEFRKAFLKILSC
Assay: D3 Mitogenesis Functional Assay (3H-thymidine uptake, CHOp-D3 cells)
Type: cell-based
Conditions: read-out: D3 Antagonist IC50
measured quantity: IC50 (µM)

# count of solved cases: 3
• CC(C)(C)c1nc(N2CCN(CCCCNC(=O)N3CCN(c4ccccc4)CC3)CC2)cc(C(F)(F)F)n1 [Compound 8] = 0.125
• CC(C)(C)c1nc(N2CCN(CCCCNC(=O)N3CCN(c4ccccn4)CC3)CC2)cc(C(F)(F)F)n1 [Compound 29] = 0.0547
• O=C(NCCCCN1CCN(c2cccc(Cl)c2Cl)CC1)N1CCN(c2ccccc2)CC1 [Compound 3] = 0.00343

a = O=C(NCCCCN1CCN(c2cccc(Cl)c2Cl)CC1)N1CCC(c2ccccc2)CC1 [Compound 47]
b = CC(C)(C)c1nc(N2CCN(CCCCNC(=O)N3CCC(c4ccccc4)CC3)CC2)cc(C(F)(F)F)n1 [Compound 48]
c = CC(C)(C)c1nc(N2CCN(CCCCNC(=O)N3CCN(c4ncccn4)CC3)CC2)cc(C(F)(F)F)n1 [Compound 32]
Inquiry: Highest IC50 first, then in falling order down to the smallest. Reply with the labels, ordered as the question asks.
Reply text: b, c, a
(b: 2 µM, c: 0.195 µM, a: 0.04 µM)

====

Target: D3R (Homo sapiens (Human), UniProt P35462)
Experiment: β-Arrestin Recruitment Assay, U2OS DRD3
Format: cell-based
Conditions: ratio of β-arrestin IC50 values
Protocol: Antagonist potency of the compounds against agonist induced recruitment of β-arrestin by D3R and D2LR was measured using DiscoverRx PathHunter eXpress kits. […] After incubation at 37° C. for 90 min, the DiscoveRx detection reagent was added, the plates were incubated at room temperature for 60 min and the luminescence was measured on a Synergy 4 plate reader (BioTek). The data were plotted and the agonist EC80 values were calculated using GraphPad Prism software. […]
measured quantity: D2 IC50/D3 IC50

Some solved cases for reference:
* CN(C)Cc1cccc2nc(C(=O)NCCCCN3CCN(c4cc(C(F)(F)F)nc(C(C)(C)C)n4)CC3)cn12 | 10
* CN(C)Cc1c(C(=O)NCCCCN2CCN(c3cc(C(F)(F)F)nc(C(C)(C)C)n3)CC2)nc2ccccn12 | 30

I = COc1ccc2c(c1)CN(C(=O)NCCCCN1CCN(c3cc(C(F)(F)F)nc(C(C)(C)C)n3)CC1)C2
II = Cc1cc(N2CCN(CCCCNC(=O)N3CCN(c4ccccc4)CC3)CC2)nc(C(C)(C)C)n1
Inquiry: // task: argmin of D2 IC50/D3 IC50 over [ I , II ] Answer by quoting the chosen item's label.
Reply text: II

====

Target: human D2 dopamine receptors (Homo sapiens (Human), UniProt P14416)
Sequence (P14416 whole entry): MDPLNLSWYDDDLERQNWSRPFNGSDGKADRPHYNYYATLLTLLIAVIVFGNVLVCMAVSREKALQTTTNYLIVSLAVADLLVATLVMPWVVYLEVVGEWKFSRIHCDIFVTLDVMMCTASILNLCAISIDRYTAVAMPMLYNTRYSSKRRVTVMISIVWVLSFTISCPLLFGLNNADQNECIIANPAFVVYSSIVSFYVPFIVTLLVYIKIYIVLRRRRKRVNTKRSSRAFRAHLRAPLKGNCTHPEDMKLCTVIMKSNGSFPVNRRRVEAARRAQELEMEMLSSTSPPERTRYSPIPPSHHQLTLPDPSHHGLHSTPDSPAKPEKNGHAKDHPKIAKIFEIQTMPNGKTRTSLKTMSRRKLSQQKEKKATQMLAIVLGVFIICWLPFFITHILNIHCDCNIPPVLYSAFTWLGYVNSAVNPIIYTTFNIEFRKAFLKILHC
Assay: Whole Cell Adenylyl Cyclase Assay, D2
Assay type: cell-based
Settings: inhibition of forskolin (100 μM) stimulated cAMP, normalized to quinpirole; compound conc ≥10× Ki (per compound); mean ± S.E.M.
measured quantity: D2 Cyclase % Inhibition Normalized (%)

- Cc1cc(N2CCN(CCCCNC(=O)N3CCC(n4c(=O)[nH]c5ccccc54)CC3)CC2)nc(C(C)(C)C)n1: −5.9

A = COc1ccc2c(c1)CN(C(=O)NCCCCN1CCN(c3cc(C(F)(F)F)nc(C(C)(C)C)n3)CC1)C2
B = N#Cc1cc(N2CCN(CCCCNC(=O)N3CCN(c4ccccc4)CC3)CC2)cc(C(F)(F)F)c1
C = CC(C)(C)c1nc(N2CCN(CCCCNC(=O)c3cn4ccccc4n3)CC2)cc(C(F)(F)F)n1
Inquiry: Ordering: ascending D2 Cyclase % Inhibition Normalized. Answer with the labels in sequence, matching the requested order.
Reply text: A, B, C
(A: −39.1%, B: −9.2%, C: −1.9%)

I = Cc1cc(N2CCN(CCCCNC(=O)N3CCN(c4ccccc4)CC3)CC2)nc(C(C)(C)C)n1
II = CC(C)(C)c1nc(N2CCN(CCCCNC(=O)N3CCN(c4ccccn4)CC3)CC2)cc(C(F)(F)F)n1
III = CC(C)(C)c1nc(N2CCN(CCCCNC(=O)N3CCc4c([nH]c5ccccc45)C3)CC2)cc(C(F)(F)F)n1
IV = CC(C)(C)c1nc(N2CCN(CCCCNC(=O)N3Cc4ccccc4C3)CC2)cc(C(F)(F)F)n1
Inquiry: Rank order required: D2 Cyclase % Inhibition Normalized, descending. List labels; respect the requested ordering.
Reply text: I, II, III, IV

Where do these numbers come from? They come from patent US9598387B2.
